Sourced from patent US5723475A

system_under_test: Dopamine D2 receptor (Rattus norvegicus)
Construct: membrane fraction prepared from the striatum of Wister male rats
Sequence (P61169 whole entry): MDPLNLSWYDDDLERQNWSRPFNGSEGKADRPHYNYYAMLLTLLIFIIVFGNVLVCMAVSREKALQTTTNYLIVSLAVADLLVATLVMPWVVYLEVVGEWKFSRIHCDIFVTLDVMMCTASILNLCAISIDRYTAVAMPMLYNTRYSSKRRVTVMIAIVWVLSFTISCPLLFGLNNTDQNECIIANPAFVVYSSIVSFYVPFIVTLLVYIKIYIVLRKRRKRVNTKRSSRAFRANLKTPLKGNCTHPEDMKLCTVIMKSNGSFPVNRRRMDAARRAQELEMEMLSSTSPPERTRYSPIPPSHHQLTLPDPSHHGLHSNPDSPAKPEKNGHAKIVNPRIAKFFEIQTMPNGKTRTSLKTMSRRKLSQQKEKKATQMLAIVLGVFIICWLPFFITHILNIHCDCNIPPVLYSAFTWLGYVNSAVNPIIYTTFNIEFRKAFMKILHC
assay_procedure: Dopamine D2 Receptor Blocking Effect ([3H] raclopride binding, striatum membrane fraction)
settings: 1.0 nM [3H] raclopride, 25° C., one hour
pIC50: −log10 of the molar value.

{"chemical_string": "O=C(CCCN1CC=C(c2ccc(Oc3ccccc3)cc2)CC1)Nc1ccccc1Cc1ccccc1", "pIC50": "< 6.00"}
{"chemical_string": "O=C(CCCCCN1CCC(c2ccc(Oc3ccccc3)cc2)CC1)Nc1ccccc1Cc1ccccc1", "pIC50": "< 6.00"}
{"chemical_string": "O=C(CCCCCN1CC=C(c2ccc(Oc3ccccc3)cc2)CC1)Nc1ccccc1Cc1ccccc1", "pIC50": "< 6.00"}
